- Assay system: T1, full-length beta-Catenin (Uniprot ID P35222) (Homo sapiens (Human), UniProt P35222 1-781)
- T1 construct: The assay protocol says 'full-length'; also called bCat; B-Catenin
- T1 sequence: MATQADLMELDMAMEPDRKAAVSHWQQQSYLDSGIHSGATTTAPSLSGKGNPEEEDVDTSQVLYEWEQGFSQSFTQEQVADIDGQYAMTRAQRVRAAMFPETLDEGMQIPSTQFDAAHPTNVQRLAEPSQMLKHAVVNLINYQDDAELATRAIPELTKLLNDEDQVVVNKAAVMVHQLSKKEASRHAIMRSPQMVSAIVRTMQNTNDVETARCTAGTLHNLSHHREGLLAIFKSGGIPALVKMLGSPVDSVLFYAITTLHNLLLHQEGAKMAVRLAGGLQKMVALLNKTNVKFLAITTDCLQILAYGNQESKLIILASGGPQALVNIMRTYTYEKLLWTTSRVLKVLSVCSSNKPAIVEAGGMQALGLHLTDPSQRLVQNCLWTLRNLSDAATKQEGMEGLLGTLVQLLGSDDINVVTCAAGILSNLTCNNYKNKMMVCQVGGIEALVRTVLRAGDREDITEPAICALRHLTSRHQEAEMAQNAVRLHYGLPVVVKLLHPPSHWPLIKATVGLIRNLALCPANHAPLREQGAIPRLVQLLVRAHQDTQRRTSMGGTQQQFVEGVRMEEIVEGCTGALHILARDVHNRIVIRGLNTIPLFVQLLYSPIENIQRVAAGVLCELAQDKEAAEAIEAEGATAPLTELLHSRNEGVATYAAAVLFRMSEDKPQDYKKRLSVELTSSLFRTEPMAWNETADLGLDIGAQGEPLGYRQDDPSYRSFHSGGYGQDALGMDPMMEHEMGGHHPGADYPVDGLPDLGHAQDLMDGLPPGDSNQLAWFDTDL
- Test summary: fluorescence polarization competition; full-length beta-catenin, 5FAM-TCF4(10-53) probe as competitor
Starred links: 1 amine or outer side, 2 acyl side, 3 side chain; linkers in the order of their positions; H or OH if unused. Positions of bridges follow the written chain, without caps; N, C: chain ends. Non-standard residues stand in square brackets, D forms with d. Primed or numbered codes have the meaning given here. B5(17) = 2,2-bis(4-pentenyl)glycine = 2-amino-2-(pent-4-en-1-yl)hept-6-enoic acid, stitching residue, C=CCCCC(CCCC=C)(N[*:1])C(=O)[*:2]; B5(4) = 2,2-bis(4-pentenyl)glycine = 2-amino-2-(pent-4-en-1-yl)hept-6-enoic acid (stitching residue), C=CCCCC(CCCC=C)(N[*:1])C(=O)[*:2]; B5(21) = 2-amino-2-(pent-4-en-1-yl)hept-6-enoic acid, bis(4-pentenyl)glycine (stitching residue), C=CCCCC(CCCC=C)(N[*:1])C(=O)[*:2]; SeN = (S)-5-(((allyloxy)carbonyl)(methyl)amino)-2-amino-2-methylpentanoic acid, C=CCOC(=O)N(C)CCC[C@](C)(N[*:1])C(=O)[*:2]; SdN = (S)-4-(((allyloxy)carbonyl)(methyl)amino)-2-amino-2-methylbutanoic acid, C=CCOC(=O)N(C)CC[C@](C)(N[*:1])C(=O)[*:2]; αAllylPro = C=CC[C@@]1(C(=O)O)CCCN1; S8 = C=CCCCCCC[C@](C)(N)C(=O)O
# Lookup of reported pIC50 keyed by entry
Notebook: values listed as pIC50 are -log10 of the concentration (mol/L).

Examples from the recorded data:
Ac-[αAllylPro]DA[B5(17)]DDAAFV[SdN]FWQ-NH2 (staple 1-4, 4-11, Tested as stapled peptide composition) [I-55: Ac-PL3-Asp-Ala-B5-Asp-Asp-Ala-Ala-Phe-Val-SdN-Phe-Trp-Gln-NH2 (stapled peptide)] ... 5.30
Ac-[αAllylPro]DA[B5(21)]DDAAFV[S8]FWQ-NH2 (staple 1-4, 4-11, Tested as stapled peptide composition) [I-52: Ac-PL3-Asp-Ala-B5-Asp-Asp-Ala-Ala-Phe-Val-S8-Phe-Trp-Gln-NH2 (stapled peptide)] ... 5.50
ADIXDDAAFQXFWH (not fully specified; N-terminal acetyl (Ac); C-terminal amide (NH2); RdN at position 4 and S7 at position 11 (non-natural olefin amino acids); stapled by olefin metathesis RdN-S7, Same description as I-65) [I-64: Ac-Ala-Asp-Ile-RdN-Asp-Asp-Ala-Ala-Phe-Gln-S7-Phe-Trp-His-NH2 (stapled peptide)] ... 5.37

Q: Please report the recorded pIC50 for Ac-[αAllylPro]DA[B5(4)]DDAAFV[SeN]FWQ-NH2 (staple 1-4, 4-11; not fully specified; printed as Ac-PL3-Asp-Ala-B5-Asp-Asp-Ala-Ala-Phe-Val-SeN-Phe-Trp-Gln-NH2, Same description as I-53) [I-54: Ac-PL3-Asp-Ala-B5-Asp-Asp-Ala-Ala-Phe-Val-SeN-Phe-Trp-Gln-NH2 (stapled peptide)] .
Ans: 5.50

Q: Please report the recorded pIC50 for Ac-[αAllylPro]DA[B5(21)]DDAAFV[SeN]FWQ-NH2 (staple 1-4, 4-11, Same description as I-54) [I-53: Ac-PL3-Asp-Ala-B5-Asp-Asp-Ala-Ala-Phe-Val-SeN-Phe-Trp-Gln-NH2 (stapled peptide)] .
Ans: 5.30
